target-or-test-system: SHP2 protein (Homo sapiens)
Sequence (Q06124 whole entry): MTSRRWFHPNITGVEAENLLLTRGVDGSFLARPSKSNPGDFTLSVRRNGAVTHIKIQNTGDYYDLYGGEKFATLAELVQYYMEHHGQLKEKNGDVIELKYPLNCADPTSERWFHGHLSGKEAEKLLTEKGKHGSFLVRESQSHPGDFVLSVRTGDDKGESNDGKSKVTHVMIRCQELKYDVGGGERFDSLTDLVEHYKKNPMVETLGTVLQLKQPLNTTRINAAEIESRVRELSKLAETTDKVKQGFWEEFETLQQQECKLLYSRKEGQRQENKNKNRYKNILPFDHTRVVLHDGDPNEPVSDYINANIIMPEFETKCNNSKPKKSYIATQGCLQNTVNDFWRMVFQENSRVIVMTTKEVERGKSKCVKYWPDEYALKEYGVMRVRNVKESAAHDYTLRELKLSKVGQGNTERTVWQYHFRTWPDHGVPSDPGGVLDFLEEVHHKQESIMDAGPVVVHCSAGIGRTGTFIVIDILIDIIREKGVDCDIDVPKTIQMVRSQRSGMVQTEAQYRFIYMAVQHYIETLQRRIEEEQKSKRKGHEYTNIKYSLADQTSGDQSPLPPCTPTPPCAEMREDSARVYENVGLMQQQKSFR
assay-remarks: Degradation activity on SHP2 protein in MV-411 cells (Western blot, DC50)
Format: cell-based
Parameters: endogenous in cells
test-conditions: MV411 cells, 24 hours, read-out: Degradation activity for differenct cell lines MV411 (DC50)
For each record, write down the corresponding DC50.

The examples below pair each entry with its known result.
Cc1ncsc1-c1ccc([C@H](C)NC(=O)[C@@H]2C[C@@H](O)CN2C(=O)[C@@H](NC(=O)CCCCCCCCCCN2CCC(C(=O)Nc3cccc(Sc4cnc(N5CCC(C)(N)CC5)cn4)c3)CC2)C(C)(C)C)cc1 ... > 1000 nM
Cc1ncsc1-c1ccc([C@H](C)NC(=O)[C@@H]2C[C@@H](O)CN2C(=O)[C@@H](NC(=O)CCCCCCCCCCC(=O)Nc2cccc(Sc3cnc(N4CCC(C)(N)CC4)cn3)c2)C(C)(C)C)cc1 ... < 100 nM
CC1(N)CCN(c2cnc(Sc3cccc(NC(=O)CCCCCCN4CC5(CCN(C(=O)[C@@H]6C[C@H]6C(=O)NCc6ccc7c(c6)CN(C6CCC(=O)NC6=O)C7=O)C5)C4)c3)cn2)CC1 (some centres unmarked) ... 100 to 1000 nM

Batch request: DC50 per item, same order as input.
1. CC1(N)CCN(c2cnc(Sc3cccc(NC(=O)CCN4CC5(CCN(c6ccc(C(=O)NCc7ccc8c(c7)CN(C7CCC(=O)NC7=O)C8=O)nn6)C5)C4)c3)cn2)CC1 (centres unmarked)
2. Cc1cc(C(=O)NCc2ccc3c(c2)CN(C2CCC(=O)NC2=O)C3=O)n(C2CCN(CCCCCCCCC(=O)Nc3cccc(Sc4cnc(N5CCC(C)(N)CC5)cn4)c3)CC2)n1 (centres unmarked)

Reply:
["> 1000 nM", "< 100 nM"]
